Assay: BT084 cell growth, single and combined drugs, ICGC_MB145, cisplatin and BGB IC40 combos (AID 1671461);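 further: cells exposed to drugs for 96 hours; 0% = vehicle DMSO and 100% = high DMSO full killing control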
Settings: BT084 medulloblastoma cells, drug combinations, measured here: BGB IC40 combination 0.05 uM, at 0.05 µM, stronger effect = higher value
// reported inhibition per item
Answer with a number only, understood to be in %.

INSERT INTO results (molecule, result_type, recorded_result) VALUES
  ('Cc1ccc([N+](=O)[O-])cc1S(=O)(=O)N(C)/N=C\c1cnc2ccc(Br)cn12', 'inhibition', -4.87);

Consider the molecule CC(C)OC(=O)[C@H](C)NP(=O)(OC[C@H]1O[C@@H](n2ccc(=O)[nH]c2=O)C(C)(F)[C@@H]1O)Oc1ccccc1 (some centres undefined) and give its recorded inhibition.
66.2

====

Quick list: inhibition per entry.
Experiment: growth inhibition, single agents and combos, ICB984, cell-based, cisplatin or BGB combos, synergistic combos for chromothripsis tumors (AID 1671451);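 further: cells exposed for 96 hours before readout; 0% = vehicle DMSO and 100% = killing by high DMSO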
Details: ICB984 medulloblastoma cells, drug combinations, BGB IC40 combo, at 0.05 µM, stronger effect = higher value
Output spec: scalar in %, unitless text.

Consider the worked cases shown below.
INSERT INTO measurements (compound, result_type, units, recorded_result) VALUES
  ('Cc1c(Br)cc(NCC(=O)N/N=C/c2cc([N+](=O)[O-])ccc2O)cc1Br', 'inhibition', '%', -0.825),
  ('CC1CN(c2c(F)c(N)c3c(=O)c(C(=O)O)cn(C4CC4)c3c2F)CC(C)N1 (stereo not drawn)', 'inhibition', '%', -1.88),
  ('O=c1ccn(C2CC(O)C(CO)O2)c(=O)[nH]1 (stereo not drawn)', 'inhibition', '%', -22),
  ('C[C@@H]1O[C@@H](O[C@@H]2[C@@H](O)[C@H](OCCc3ccc(O)c(O)c3)O[C@H](CO)[C@H]2OC(=O)C=Cc2ccc(O)c(O)c2)[C@H](O)[C@H](O)[C@H]1O', 'inhibition', '%', -11.9),
  ('NC(=O)c1cccc2cn(-c3ccc(C4CCCNC4)cc3)nc12 (stereo not drawn)', 'inhibition', '%', -43.2),
  ('CC(C)(C#N)c1ccc(N2C(=O)OCc3cnc4ccc(-c5cnc6ccccc6c5)cc4c32)cc1', 'inhibition', '%', 30.5),
  ('CN(C)C(=S)NN=C(c1ccccn1)c1ccccn1', 'inhibition', '%', 88.6),
  ('O=c1cc(-c2ccc(O)cc2)[nH]c(=S)[nH]1', 'inhibition', '%', -24.8),
  ('C[C@H](NC(=O)c1ccccc1N=Cc1c(O)ccc2ccccc12)c1ccccc1', 'inhibition', '%', 7.65),
  ('N#Cc1ccc(OC2CCC(NC(=O)CCSc3nc4ccccc4c(=O)[nH]3)CC2)cc1 (stereo not drawn)', 'inhibition', '%', 7.9);

Name the recorded inhibition of the compound listed here: O=C(O)c1cc2cccc([N+](=O)[O-])c2[nH]1
-61

Consider the compound CC(C)C(=O)SCCCCCCC(=O)Nc1nc(-c2ccccc2)cs1 . State its measured inhibition.
31.3

# return recorded inhibition for input CC(C)c1ccc(-c2cc(=O)c3ccccc3o2)cc1
14.8

Given NC(=S)NN=Cc1ncccc1N , respond with its inhibition.
-31.3

Give inhibition for the following compound: COc1cccc2c1C(=O)c1c(O)c3c(c(O)c1C2=O)CC(O)(C(C)=O)CC3OC1CC(N)C(O)C(C)O1 (stereo not drawn)
102

Please look at this compound and report its inhibition: Cc1cc(C)cc(C(=O)NOCCCCCC(=O)NO)c1
93.2

Give inhibition for O=C(CCCCCCC(=O)NO)NO
-25.8

Determine its reported inhibition: COc1ccc(CC(N)C(=O)NC2C(CO)OC(n3cnc4c(N(C)C)ncnc43)C2O)cc1 (stereo not drawn)
100

For the compound CC(Oc1cc(-c2cnn(C3CCNCC3)c2)cnc1N)c1c(Cl)ccc(F)c1Cl (stereo not drawn) , give its reported inhibition.
44.6

Give me measured inhibition, please, for this compound: CC1OC(CC(=O)O)CC2=C1C(=O)c1c(O)cccc1C2=O (stereo not drawn)
102

Provide measured inhibition value, entry: Nc1ccccc1NC(=O)c1cnccn1
-8.97

Hey, just so you know, these numbers are from PubChem BioAssay.
